Property: GI50; scope: individual compounds
Tested on: LNCaP cells
MEASUREMENT NOTES: LNCaP cell viability assay (MTS)
Type: cell-based
RUN CONDITIONS: Homo sapiens, LNCaP, 48 h, LNCaP cell line

# COMPOUND, GI50 (µM)
measured = [
    ("CN(C)CC(NS(=O)(=O)c1ccc(Cl)c(F)c1)c1ccc(Cl)c(Cl)c1 (stereo not shown)", 49.5),
    ("O=S(=O)(NCCC(c1ccccc1)C(F)(F)F)c1ccc(OC(F)(F)F)cc1 (stereo not shown)", 55),
    ("CCOC(=O)C(NS(=O)(=O)c1ccc(OC(F)(F)F)cc1)c1ccc(OC)c(Br)c1 (stereo not shown)", 49.7),
    ("O=S(=O)(NC(c1ccc(F)cc1)C1CCCO1)c1ccc(OC(F)(F)F)cc1 (stereo not shown)", 33),
]
